Attribution: patent US20070219214A1

Assignment: determine reported Kb for the given compounds.
Molecular target: human NK3 receptor (Homo sapiens)
Sequence (P29371 whole entry): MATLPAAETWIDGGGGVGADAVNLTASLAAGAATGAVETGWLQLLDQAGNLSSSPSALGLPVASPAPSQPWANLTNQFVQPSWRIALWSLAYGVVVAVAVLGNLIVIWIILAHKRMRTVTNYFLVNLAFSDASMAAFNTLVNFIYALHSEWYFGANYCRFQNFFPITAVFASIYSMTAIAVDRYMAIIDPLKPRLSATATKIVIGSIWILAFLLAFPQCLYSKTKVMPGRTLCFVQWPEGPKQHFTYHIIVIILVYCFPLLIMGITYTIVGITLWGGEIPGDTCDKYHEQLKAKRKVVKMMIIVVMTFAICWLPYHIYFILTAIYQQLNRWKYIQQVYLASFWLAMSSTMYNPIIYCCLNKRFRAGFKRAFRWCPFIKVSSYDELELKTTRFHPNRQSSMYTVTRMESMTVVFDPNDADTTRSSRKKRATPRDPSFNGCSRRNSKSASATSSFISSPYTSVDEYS
Assay: Functional cellular test, Ca2+ measurements using aequorin for NK3 activity
Assay type: cell-based
Set-up: expressed in transfected cells; host or cells: cell line co-expressing mitochondrially targeted apoaequorin (CHO according to b76/b77)
Conditions: read-out: pA2 data for NK3 (converted)

Completed entries (count: 10):
{"compound": "CN(C)C(=O)C1(N2CCCCC2)CCN(CC[C@H](CN(C)C(=O)c2ccccc2)c2ccc(Cl)c(Cl)c2)CC1 [compound 1]", "Kb": "2.51 nM"}
{"compound": "CN(C)C(=O)C1(N2CCCCC2)CCN(CCC(CN(C)C(=O)c2ccccn2)c2ccc(Cl)c(Cl)c2)CC1 (centres unmarked) [compound 43]", "Kb": "31.6 nM"}
{"compound": "CN(C)C(=O)C1(N2CCCCC2)CCN(CCC(CN(C)C(=O)c2cc[n+]([O-])cc2)c2ccc(Cl)c(Cl)c2)CC1 (centres unmarked) [compound 17]", "Kb": "126 nM"}
{"compound": "CN(C[C@@H](CCN1CCC(C(=O)N2CCCC2)(N2CCCC2)CC1)c1ccc(Cl)c(Cl)c1)C(=O)c1ccccc1 [compound 103]", "Kb": "50.1 nM"}
{"compound": "CN(C)C(=O)C1(N2CCCCC2)CCN(CCC(CN(C)C(=O)c2ccc(Cl)nc2)c2ccc(Cl)c(Cl)c2)CC1 (centres unmarked) [compound 18]", "Kb": "10 nM"}
{"compound": "CN(C)C(=O)C1(N2CCCCC2)CCN(CCC(CN(C)C(=O)c2cccs2)c2ccc(Cl)c(Cl)c2)CC1 (centres unmarked) [compound 37]", "Kb": "31.6 nM"}
{"compound": "Cc1c(C(=O)N(C)CC(CCN2CCC(C(=O)N(C)C)(N3CCCCC3)CC2)c2ccc(Cl)c(Cl)c2)nnn1Cc1ccccc1 (centres unmarked) [compound 67]", "Kb": "15.8 nM"}
{"compound": "CN(C)C(=O)C1(N2CCCCC2)CCN(CCC(CN(C)C(=O)C2CCCC2)c2ccc(Cl)c(Cl)c2)CC1 (centres unmarked) [compound 23]", "Kb": "12.6 nM"}
{"compound": "CNC(=O)C1(N2CCCCC2)CCN(CC[C@H](CN(C)C(=O)c2ccccc2)c2ccc(Cl)c(Cl)c2)CC1 [compound 2]", "Kb": "31.6 nM"}
{"compound": "CN(C)C(=O)C1(N2CCCCC2)CCN(CCC(CN(C)C(=O)c2ccoc2)c2ccc(Cl)c(Cl)c2)CC1 (centres unmarked) [compound 36]", "Kb": "63.1 nM"}

// each listed compound needs a value for Kb
1. CN(C)C(=O)C1(N2CCCCC2)CCN(CCC(CN(C)C(=O)Cc2ccncc2)c2ccc(Cl)c(Cl)c2)CC1 (centres unmarked) [compound 51]
2. CN(C)C(=O)C1CCCCN1C1CCN(CCC(CN(C)C(=O)c2ccccc2)c2ccc(Cl)c(Cl)c2)CC1 (centres unmarked) [compound 97]
3. CN(C[C@@H](CCN1CCC(C(=O)N2CCCC2)(N2CCCC2)CC1)c1ccc(Cl)c(Cl)c1)C(=O)c1cc(C#N)cc2ccccc12 [compound 102]
4. CN(C)C(=O)C1(N2CCCCC2)CCN(CCC(CN(C)C(=O)c2ccc(OC(F)(F)F)cc2)c2ccc(Cl)c(Cl)c2)CC1 (centres unmarked) [compound 55]

1: 31.6 nM; 2: 79.4 nM; 3: 39.8 nM; 4: 7.94 nM
